Data origin: paper PMC11051924

- measured_on: recombinant human GSK-3β (Homo sapiens, UniProt P49841)
- Construct: purchased
- Sequence (P49841 whole entry): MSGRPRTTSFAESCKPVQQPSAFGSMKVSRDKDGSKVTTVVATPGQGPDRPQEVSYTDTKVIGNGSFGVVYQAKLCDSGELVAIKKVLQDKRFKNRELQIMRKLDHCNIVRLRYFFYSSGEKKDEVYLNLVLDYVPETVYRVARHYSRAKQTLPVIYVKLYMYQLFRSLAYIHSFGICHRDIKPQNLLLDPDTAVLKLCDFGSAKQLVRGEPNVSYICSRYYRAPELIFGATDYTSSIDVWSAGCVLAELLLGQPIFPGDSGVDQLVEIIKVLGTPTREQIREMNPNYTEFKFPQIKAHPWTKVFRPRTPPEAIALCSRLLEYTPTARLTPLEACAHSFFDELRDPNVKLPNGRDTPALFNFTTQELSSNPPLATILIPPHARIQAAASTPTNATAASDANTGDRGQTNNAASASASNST
- assay_method_text: GSK-3β inhibition (luciferin kinase detection)
- Type: biochemical
- study_conditions: recombinant human GSK-3β; mean of three independent determinations; read-out: IC50 (μM) ± SEM GSK-3β
Decide using IC50 alone. Strictly below 0.9 µM: met. Equal to or above 0.9 µM: not met.

* Cn1c(SCCNc2c3c(nc4cc(Cl)ccc24)CCCC3)nc(-c2ccncc2F)cc1=O [Compound 16d] | not met
* Cn1c(NCCSSCCNc2c3c(nc4ccc(Cl)cc24)CCCC3)nc(-c2ccncc2)cc1=O [Compound 18c] | met
* Cn1c(SCCNc2c3c(nc4ccc(Cl)cc24)CCCC3)nc(-c2ccncc2)cc1=O [Compound 16c] | not met
* Cn1c(SCCNc2c3c(nc4ccc(Br)cc24)CCCC3)nc(-c2ccncc2F)cc1=O [Compound 16e] | not met
* Cn1c(NCCSSCCNc2c3c(nc4ccc(Br)cc24)CCCC3)nc(-c2ccncc2)cc1=O [Compound 18b] | met
* Cn1c(SCCNc2c3c(nc4cc(Cl)ccc24)CCCC3)nc(-c2ccncc2)cc1=O [Compound 16a] | not met
* Cn1c(NCCSSCCNc2c3c(nc4cc(Cl)ccc24)CCCC3)nc(-c2ccncc2)cc1=O [Compound 18a] | not met
* Cn1c(SCCNc2c3c(nc4ccc(Br)cc24)CCCC3)nc(-c2ccncc2)cc1=O [Compound 16b] | not met
